Values compiled from PubChem BioAssay (NCI).

Test system: MOLT-4 leukemia
experiment notes: NCI tumour cell line growth inhibition, 48 h
Below: a set of entries, each annotated with reported TGI.
quantity: TGI

[[record]]
compound = "CC(NNC(=O)c1ccncc1)c1ccc(F)cc1 (stereo not drawn)"
result = "> 100 µM"

[[record]]
compound = "COc1ccc(-c2nc3sc4c(c3c(=O)[nH]2)CCCCCC4)cc1"
result = "> 33.2 µM"

[[record]]
compound = "CC1SC2=NC3=C(c4ccccc4C3=O)C(c3ccc(F)cc3)N2C1=O (stereo not drawn)"
result = "> 100 µM"


* * *

Tested on: MDA-MB-231 breast
experiment notes: NCI tumour cell line growth inhibition, 48 h
quantity: TGI

[[record]]
molecule = "COc1ccc(/C=C(/C#N)C(N)=O)cc1OC"
result = "> 100 µM"

[[record]]
molecule = "COC(O)C(=O)c1c2c(cc3c1CC1(Cc4cc5c(cc4C1)CCC5)C3)CCC2 (centres undefined)"
result = "29.2 µM"

[[record]]
molecule = "CCCCCCCCN=C(N)c1ccc(N2CCN(c3ccc(C(N)=NCCCCCCCC)cc3)CC2)cc1"
result = "> 50 µM"

[[record]]
molecule = "COc1ccc(OC)c(/C=C2\\SC(=S)NC2=O)c1"
result = "43.2 µM"

[[record]]
molecule = "O=C1C=C2C(=NC34CCCCC3C(c3ccccc3)C3=C(c5ccccc5CC3)N24)c2ccccc21 (centres undefined)"
result = "> 10 µM"

[[record]]
molecule = "Cc1ccc(C2=Nc3cccc4cccc(c34)N2)cc1"
result = "> 100 µM"

[[record]]
molecule = "CCN(CC)CCCNc1nc(=O)[nH]c(C)c1C(=O)Nc1cccc2cc3ccccc3cc12"
result = "> 100 µM"

[[record]]
molecule = "C[C@]12CC[C@@H]3c4ccc(OP(=O)(O)O)cc4CC[C@H]3[C@@H]1CCC2=O"
result = "> 100 µM"

[[record]]
molecule = "O=C(C1OC1c1ccc(O)cc1)C12CC3CC(CC(C3)C1)C2 (centres undefined)"
result = "> 100 µM"


* * *

Listed next: entries and their corresponding TGI.
Test system: SF-539 CNS
experiment notes: NCI tumour cell line growth inhibition, 48 h
quantity: TGI

[[record]]
molecule = "COc1cc(C2C(C(=O)O)=C(CO)Oc3cc4c(cc32)OCO4)cc(OC)c1O (stereo not drawn)"
result = "> 100 µM"

[[record]]
molecule = "O=C(CN1CCOCC1)Nc1nc(-c2ccc(Cl)cc2)cs1"
result = "> 100 µM"

[[record]]
molecule = "COc1ccc(OC)c(NC(=O)C2=C(C)NC(C)=C(C(=O)Nc3cc(OC)ccc3OC)C2c2ccccc2)c1"
result = "> 100 µM"

[[record]]
molecule = "O=C(/C=C/c1ccccc1)/C=N/N1C(=S)N(c2ccccc2)C(=Nc2ccccc2)C1=Nc1ccccc1"
result = "> 100 µM"

[[record]]
molecule = "CCOC(=O)c1nc2ccc(Cl)cc2c2c1Cc1ccccc1-2"
result = "> 100 µM"

[[record]]
molecule = "Cc1ccccc1[P+](Cc1ccccc1)(c1ccccc1)c1ccccc1"
result = "24.7 µM"

[[record]]
molecule = "CC1=C(C)C(=O)c2c(cc3ccccn23)C1=O"
result = "37.1 µM"

[[record]]
molecule = "Cn1cccc1-c1cc(-c2cccs2)nc(N)c1C#N"
result = "> 100 µM"

[[record]]
molecule = "CCSCCC(N)C(=O)O (stereo not drawn)"
result = "> 100 µM"

[[record]]
molecule = "O=C1[C@H]2ON(c3ccccc3)C(c3ccccc3Cl)[C@H]2C(=O)N1c1ccc(Cc2ccc(N3C(=O)[C@@H]4ON(c5ccccc5)C(c5ccccc5Cl)[C@@H]4C3=O)cc2)cc1 (stereo partly drawn)"
result = "> 100 µM"

[[record]]
molecule = "Nc1ccn(CCNCCn2cnc3nc(N)[nH]c(=O)c32)c(=O)n1"
result = "> 100 µM"

[[record]]
molecule = "Cn1cc(-c2ccc3occ(-c4cccc(-c5ccncc5)c4)c3n2)cn1"
result = "5.54 µM"

[[record]]
molecule = "COc1ccc(-c2c3c(N)nc(-c4ccncc4)nc3nc3c2c(C)nn3-c2ccccc2)cc1"
result = "4.97 µM"

[[record]]
molecule = "COc1ccc(C2=Nc3ccccc3NC(=O)C2)cc1"
result = "65.6 µM"

[[record]]
molecule = "COc1ccc2c(c1)cn1c3ccc(O)cc3nc(N)c21"
result = "2.72 µM"

[[record]]
molecule = "CCN(CC)CC(C)Nc1ccc([N+](=O)[O-])c2sc3ccccc3c(=O)c12 (stereo not drawn)"
result = "7.56 µM"

[[record]]
molecule = "C#CCOCn1cnc2c(Cl)ncnc21"
result = "> 100 µM"

[[record]]
molecule = "NCCn1c(=O)[nH]c(=O)[nH]c1=S"
result = "> 100 µM"

